Test: RAM signaling pathway blockade in yeast – S. cerevisiae, Pdr1DBD-CYC8 efflux-inhibited sensitized strain, primary screen (AID 1298);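 note: 0% = DMSO untreated cells without growth and 100% = 10 µM 1-NA-PP1 full growth; higher means more yeast growth rescued from 5-FOA killing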
Details: S. cerevisiae cbk1-as DSE1-URA3 strain, 5-FOA growth OD615, 2 d; at 50 µM; stronger effect = higher value
Parameter RAM network inhibition: see the listing below.
Give the value in % but do not write % after it.

Use these answered entries as a reference point.
molecule	RAM network inhibition [%]
O=C(O)CCCC(=O)Nc1c(F)c(F)c(F)c(F)c1F	-0.87
N#CCCN1CCN(S(=O)(=O)c2ccc(S(=O)(=O)NC3CCCCC3)cc2)CC1	5.92
COc1ccccc1OCCNC(=O)c1cccs1	7.11
O=C(Nc1ccc2c(c1)OCO2)C1COc2ccccc2O1 (stereo not given)	3.35
Brc1ccc2ncnc(Nc3ccc(N4CCOCC4)cc3)c2c1	3.74
COc1cc(C2C(C#N)=C(C)NC3=C2C(=O)CC(C)(C)C3)ccc1OCCO (stereo not given)	3.55

Lookup: Please report the measured RAM network inhibition for `COC(=O)c1ccc(N=c2sc(C(=O)OC)cc(=O)n2C)cc1`
Found: 3.85

Lookup: Please report the measured RAM network inhibition for `CCOC(=O)c1ccc(NCc2nc3ccccc3[nH]2)cc1`
Found: 2.11

Lookup: Please report the measured RAM network inhibition for COc1cccc(C2c3c(oc4ccc(F)cc4c3=O)C(=O)N2CCCN2CCOCC2)c1 (stereo not given)
Found: 4.33

Lookup: Please report the measured RAM network inhibition for COC(=O)c1ccccc1NC1c2ccccc2C(=O)N1c1cccnc1 (stereo not given)
Found: 4.8

Data credit: PubChem BioAssay
